# Tested on: SF-268
# Method Notes: NCI tumour cell line growth inhibition, 48 h
Calls of active or inactive are those of the source. No stated cut-off is given here; in the data, active = GI50 up to about 1.1 µM and inactive = higher.
Select the correct class. Options are active, inactive and nothing else.

Task: Field: outcome | Entry: CC(=O)C1=C(C)N2C(=NC3=C(CCc4ccccc43)C2c2cccc(Br)c2)S1 (centres undefined)
Result: inactive

Task: Field: outcome | Entry: CCN(CC)CCN1C(=O)CC2[C@@H]3CCc4cc(OC)ccc4C3CC[C@]2(C)C1=O (some centres undefined)
Result: inactive

Task: Field: outcome | Entry: "Cc1ccc2c3c1[C@@H]1O[C@@H]1c1cccc(c1-3)[C@@H]1O[C@H]21"
Result: inactive

Task: Field: outcome | Entry: "CC(C)(C)[C@@H]1NC(=O)CN1C(=O)OCc1ccccc1"
Result: inactive

Task: Field: outcome | Entry: "C=C(C)CC1=C(C(=S)NCCO[Si](C)(C)C(C)(C)C)C(OCC)(OCC)C1=O"
Result: inactive

Task: Field: outcome | Entry: CCN(CC)CCC1(C(=O)OC)SCCc2ccc(C)cc21 (centres undefined)
Result: inactive

Task: Field: outcome | Entry: "COc1ccc(/C=C2\C[C@H]3[C@@H]4CCC5=C/C(=N/O)CC[C@]5(C)[C@H]4CC[C@]3(C)\C2=N\O)cc1OC"
Result: inactive

Task: Field: outcome | Entry: "O=c1c(-c2ccc3c(c2)OCO3)coc2c3c(ccc12)OCO3"
Result: inactive

Task: Field: outcome | Entry: "CCc1n[nH]c(=O)n1-c1ccncc1"
Result: inactive

Task: Field: outcome | Entry: COC(=O)C(Cc1ccccc1)/N=C/c1c(O)c(O)c(C(C)C)c2cc(C)c(-c3c(C)cc4c(C(C)C)c(O)c(O)c(/C=N/C(Cc5ccccc5)C(=O)OC)c4c3O)c(O)c12 (centres undefined)
Result: inactive

Task: Field: outcome | Entry: Brc1ccc(C2CC3(c4ccccc4)ON=C(c4ccccc4)N3c3ccccc3S2)cc1 (centres undefined)
Result: inactive

Task: Field: outcome | Entry: N=C(N)NC1C(O)C(O)C(O)C(NC(=N)N)C1O (centres undefined)
Result: inactive

Task: Field: outcome | Entry: C=CC1(c2ccccc2Cl)N/C(=C/OCC)CO1 (centres undefined)
Result: inactive

Task: Field: outcome | Entry: CNC(=O)CNC(=O)C(Cc1ccc(NC(=O)CCCCC(C)=O)cc1)NC(=O)C(CCC(=O)OCc1ccccc1)NC(=O)OC(C)(C)C (centres undefined)
Result: inactive

Task: Field: outcome | Entry: "O=C(O)c1cc(/C=C/c2ccc(O)c(O)c2)ccc1O"
Result: inactive

Task: Field: outcome | Entry: C=C(COC(C)=O)CC(/C=C(\C)CCC=C(C)C)OC(C)=O (centres undefined)
Result: inactive

Task: Field: outcome | Entry: "C#CCNCC(=O)O"
Result: inactive

Task: Field: outcome | Entry: O=C(OCC1OC(n2nc(Cn3nnc(-c4cccnc4)n3)n(-c3cccc4ccccc34)c2=S)C(OC(=O)c2ccccc2)C1OC(=O)c1ccccc1)c1ccccc1 (centres undefined)
Result: inactive

Task: Field: outcome | Entry: "CCCCCCSc1nc(N)nc2nc[nH]c12"
Result: inactive

Task: Field: outcome | Entry: "O=C(NC(=O)c1ccccc1[N+](=O)[O-])Nc1ccc(Oc2ncc(Cl)cn2)c(C(F)(F)F)c1"
Result: active

Task: Field: outcome | Entry: "COc1ccccc1/C=N/N=C(\N)NO"
Result: inactive

Task: Field: outcome | Entry: "COc1cc(NS(C)(=O)=O)ccc1Nc1ccnc2ccc3[nH]ccc3c12"
Result: inactive

Task: Field: outcome | Entry: "O=C1C=C/C(=C/[C@H]2SSC=C[C@]23C=CC(=O)C3)C1"
Result: inactive

Task: Field: outcome | Entry: "CCOC(=O)c1cc(Br)c(-c2onc(C)c2Br)n1C"
Result: inactive

Task: Field: outcome | Entry: "O=c1cc(N2CCOCC2)[nH]c(=O)n1-c1cccc(C(F)(F)F)c1"
Result: inactive

Task: Field: outcome | Entry: COc1ccc(C2(CC(C)C)CCNC2)cc1OC (centres undefined)
Result: inactive

Task: Field: outcome | Entry: O=C1CSC2=NC3=C(CSC/C3=C\c3ccc(Cl)cc3)C(c3ccc(Cl)cc3)N12 (centres undefined)
Result: inactive

Task: Field: outcome | Entry: "O=C(O)C(F)(F)C(F)(F)C(F)(F)C(F)(F)C(F)(F)C(F)(F)C(F)(F)C(F)(F)F"
Result: inactive

Task: Field: outcome | Entry: "O=S1(=O)OCCOS(=O)(=O)C1(F)Cc1ccccc1"
Result: inactive

Task: Field: outcome | Entry: Cc1c(C2CCSc3ccccc3N2)sc2ccccc12 (centres undefined)
Result: inactive

Task: Field: outcome | Entry: "CC/C(Cl)=N\OC(=O)Nc1ccc(F)cc1F"
Result: inactive

Task: Field: outcome | Entry: "O=[N+]([O-])c1cc(-c2nnc(C34CC5CC(CC(C5)C3)C4)o2)cc([N+](=O)[O-])c1"
Result: inactive

Task: Field: outcome | Entry: "S=C1N(/N=C/c2c3ccccc3cc3ccccc23)C(=N\c2ccccc2)/C(=N/c2ccccc2)N1c1ccccc1"
Result: inactive

Task: Field: outcome | Entry: "O=C1c2ccccc2-c2ccc(/N=N/c3c(O)ccc4ccccc34)cc21"
Result: inactive
